target: human IGF-1 receptor (human, UniProt P08069 31-1367); test: cell-based or functional assay
Recorded EC50, phosphorylation (FIG. 18C) values for a group of binders are listed next.

See these solved cases before continuing.
DP22LysC (ligand) chain 1: APPPSLPSPSRLPGPSDTPILPQEEEEERGPEHLCGAHLVDALYLVCGDRGFYSSSSRAPPPSLPSPSRLPGPSDTPILPQK chain 2: GIVDECCHRSCDLRRLENYCN ... 14.8 nM
DP20: GE5K-B chain-CTP(K)-A Chain (ligand) GEEEEEKGPEHLCGAHLVDALYLVCGDRGFYSSSSRAPPPSLPSPSRLPGPSDTPILPQKGIVDECCHRSCDLRRLENYCN ... 316 nM
DP20 Lys C (two chain form of DP20) (ligand) chain 1: GPEHLCGAHLVDALYLVCGDRGFYSSSSRAPPPSLPSPSRLPGPSDTPILPQK chain 2: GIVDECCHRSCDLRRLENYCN ... 8.23 nM

Attention now turns to another entry.
# input Requested read-out: EC50, phosphorylation (FIG. 18C). Entry: DP22: CTP-E5R-B chain-CTP(K)-A Chain (ligand) MGSSSSKAPPPSLPSPSRLPGPSDTPILPQEEEEERGPEHLCGAHLVDALYLVCGDRGFYSSSSRAPPPSLPSPSRLPGPSDTPILPQKGIVDECCHRSCDLRRLENYCN
# output 83.1 nM

Hey, just so you know, these numbers are from patent US20150299285A1.
